- SYSTEM: Beta-secretase 1 (Homo sapiens, UniProt P56817)
- Sequence (P56817 whole entry): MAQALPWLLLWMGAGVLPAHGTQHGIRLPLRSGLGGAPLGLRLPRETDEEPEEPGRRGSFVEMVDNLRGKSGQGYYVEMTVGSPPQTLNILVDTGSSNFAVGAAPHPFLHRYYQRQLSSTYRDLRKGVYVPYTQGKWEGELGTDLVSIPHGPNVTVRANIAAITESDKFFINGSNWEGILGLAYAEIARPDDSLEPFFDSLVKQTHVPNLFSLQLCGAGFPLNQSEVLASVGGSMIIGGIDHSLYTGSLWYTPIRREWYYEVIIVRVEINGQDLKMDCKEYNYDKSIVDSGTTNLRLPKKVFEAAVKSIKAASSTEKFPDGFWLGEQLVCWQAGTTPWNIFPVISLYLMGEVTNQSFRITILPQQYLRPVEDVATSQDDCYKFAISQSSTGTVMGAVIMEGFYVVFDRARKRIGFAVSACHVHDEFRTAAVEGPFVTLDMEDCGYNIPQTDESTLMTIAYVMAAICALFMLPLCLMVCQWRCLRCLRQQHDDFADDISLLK
- PROCEDURE SUMMARY: Inhibition of BACE1 in human SH-SY5Y cells assessed as release of sAPPbeta after 17 hrs
MEASURED ENDPOINT: IC50 (nM)

>  <MOLECULE>
CC#Cc1cncc(-c2ccc3c(c2)C2(C=C(F)C(N)=N2)[C@]2(CC[C@H](OC)CC2)C3)c1 (some centres undefined)

>  <IC50 [nM]>
0.031

$$$$
>  <MOLECULE>
CO[C@H]1CC[C@]2(CC1)Cc1ccc(-c3cncnc3)cc1C21C=C(F)C(N)=N1 (some centres undefined)

>  <IC50 [nM]>
1.1

$$$$

I. CC#Cc1cncc(-c2ccc3c(c2)C2(C=C(F)C(N)=N2)[C@]2(CC[C@@H](OC)CC2)C3)c1 (some centres undefined)
II. CC1(C)Cc2ccc(-c3cncnc3)cc2C12C=C(F)C(N)=N2 (centres undefined)
Ask | Lab note: record which item had the higher IC50, I or II . Give the label of your selection.
Reply | II

Entry source: ChEMBL document CHEMBL2406975
